# STUDY SYSTEM: T1, Cyno SLC34A2 (cynomolgus monkey, UniProt A0A2K5UHY1 1-690)
# T1 construct: whole, on cells; Recombinant, on Rat1E cells; also called cynomolgus monkey SLC34A2; Rat1E cells expressing SLC34A2 (Cynomolgus)
# T1 sequence: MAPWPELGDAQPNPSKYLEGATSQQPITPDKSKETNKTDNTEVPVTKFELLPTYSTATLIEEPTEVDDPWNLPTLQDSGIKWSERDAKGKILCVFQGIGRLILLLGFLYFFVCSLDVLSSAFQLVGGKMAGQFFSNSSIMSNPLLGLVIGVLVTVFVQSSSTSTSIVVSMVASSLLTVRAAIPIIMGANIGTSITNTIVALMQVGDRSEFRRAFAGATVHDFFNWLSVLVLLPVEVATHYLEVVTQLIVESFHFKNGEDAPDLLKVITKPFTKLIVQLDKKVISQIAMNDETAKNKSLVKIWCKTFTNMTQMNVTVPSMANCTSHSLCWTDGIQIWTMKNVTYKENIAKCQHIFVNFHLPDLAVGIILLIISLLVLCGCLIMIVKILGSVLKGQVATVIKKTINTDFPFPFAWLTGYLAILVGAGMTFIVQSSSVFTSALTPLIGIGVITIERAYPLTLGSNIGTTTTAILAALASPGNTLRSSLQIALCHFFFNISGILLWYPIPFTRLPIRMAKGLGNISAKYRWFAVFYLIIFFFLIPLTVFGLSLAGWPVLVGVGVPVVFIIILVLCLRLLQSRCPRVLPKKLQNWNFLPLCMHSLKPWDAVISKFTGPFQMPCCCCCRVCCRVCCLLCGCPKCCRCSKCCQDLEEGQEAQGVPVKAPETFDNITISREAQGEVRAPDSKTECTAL
# ASSAY METHOD TEXT: binding affinity on Rat1E cells expressing cynomolgus SLC34A2
MEASUREMENT TYPE: Kd (nM)
Give the value, in units of nM, as a plain number.

GET /values?readout=Kd&item= cHv83-1b15.G1(L328C)k-AGL-01332-93 (OT#2) (other, AGL-01332-93 drug-linker conjugated to the antibody; engineered Cys at 328 (L328C) lies in the IgG1 constant region, outside the VH pieces given, Human IgG1 (L328C) / kappa) VH: EVQLVESGGGWVQPGGSLRLSCAASGFTFSSHIMYWVRQAPGKGLEYVSGISSNGLSSYYVDSVKGRFTISRDNSKNLLYVHMGSLKPEDMAMYYCARGGRDRVPAVFDYWGQGTLVTVSS VL: DIQMTQSPSSLSASIGDRVTITCRASQSIGTFLNWYQQKPGKAPKVLIYVASSLQSGVPSRFIGSGSGTDFTLTISSLQPEDFATYYCQQSYSVPITFGQGTRLEIKR
1.2

GET /values?readout=Kd&item= cHv83-3a23.G1(L328C)k (antibody, V domains shown, the name says L328C in the IgG1 constant region; also called [Ag]AB-2; unconjugated antibody of OT1 / OT#1) VH: EVQLVESGGGLVQPGGSLRLSCAASGFTFSSYVMHWVRQAPGKGLEYVSGVSSSGDSTFYVDSVKGRFTISRDNSKNTLYLQMGSLRAEDMAVYYCARGGITGAPLVFDIWGQGTMVTVSS VL: DIQMTQSPSSLSASVGDRVTITCRASQSISRFLNWYQQKPGKAPKVLIYVTSSLQSGVPSRFSGSGSGTDFTLTISSLQPEDFATYYCQQSYNTPITFGQGTRLEIKR
0.17

GET /values?readout=Kd&item= cHv83-3a23.G1(L328C)k-AGL-01332-93 (OT#1) (other, AGL-01332-93 drug-linker conjugated to the antibody; engineered Cys at 328 (L328C) lies in the IgG1 constant region, outside the VH pieces given, Human IgG1 (L328C) / kappa) VH: EVQLVESGGGLVQPGGSLRLSCAASGFTFSSYVMHWVRQAPGKGLEYVSGVSSSGDSTFYVDSVKGRFTISRDNSKNTLYLQMGSLRAEDMAVYYCARGGITGAPLVFDIWGQGTMVTVSS VL: DIQMTQSPSSLSASVGDRVTITCRASQSISRFLNWYQQKPGKAPKVLIYVTSSLQSGVPSRFSGSGSGTDFTLTISSLQPEDFATYYCQQSYNTPITFGQGTRLEIKR
0.227
